Every entry's value here was drawn from paper PMC8692581.

Molecular target: ALDH1A3 (Homo sapiens, UniProt P47895)
Construct: full-length, N-term 6xHis tagged
Sequence (P47895 1-512): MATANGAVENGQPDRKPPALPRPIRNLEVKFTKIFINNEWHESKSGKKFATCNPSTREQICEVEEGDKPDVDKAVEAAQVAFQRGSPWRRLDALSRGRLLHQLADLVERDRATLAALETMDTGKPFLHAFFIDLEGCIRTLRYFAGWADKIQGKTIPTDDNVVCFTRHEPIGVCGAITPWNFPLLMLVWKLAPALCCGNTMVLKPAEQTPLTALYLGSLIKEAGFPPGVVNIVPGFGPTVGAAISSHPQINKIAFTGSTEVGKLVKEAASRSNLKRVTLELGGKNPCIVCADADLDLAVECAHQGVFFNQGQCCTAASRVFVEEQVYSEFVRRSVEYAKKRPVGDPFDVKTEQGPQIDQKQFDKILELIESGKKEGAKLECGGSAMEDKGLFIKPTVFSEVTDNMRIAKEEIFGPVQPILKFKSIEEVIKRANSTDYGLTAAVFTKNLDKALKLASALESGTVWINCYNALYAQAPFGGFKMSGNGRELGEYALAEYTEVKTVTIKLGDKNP
Experiment: X-ray co-crystal structure ([…] Å); steady-state enzyme inhibition kinetics (IC50 […]); thermal shift MS in GSC-326 lysate
ENDPOINT NAME: Ki (nM)
Numbers only, in nM.

Look up Ki for this compound: COC(=O)c1cc(-c2ccc3c(c2)OCO3)nc2cc(-c3ccccc3)nn12 550
